# System: rats
# experiment summary: Local anaesthetic activity in rats
# Format: in vivo, rat
# experimental setup: i.d.
readout: Local anaesthetic activity in rats total ED50

Before answering, review these 5 worked examples.
>  <compound>
CCN(CC)CCOCCOC(=O)CC1(C)Oc2ccccc2O1

>  <system>
rats

>  <measurement>
0.35 mg

$$$$
>  <compound>
CCN(CC)CCNC(=O)CC1(C)Oc2ccccc2O1

>  <system>
rats

>  <measurement>
.phi.

$$$$
>  <compound>
CCN(CC)CCNC(=O)CC1(C)Oc2ccc(C)cc2O1 (stereo not shown)

>  <system>
rats

>  <measurement>
.phi.

$$$$
>  <compound>
C=C[C@H]1C[N@@]2CC[C@H]1C[C@@H]2[C@@H](O)c1ccnc2ccc(OC)cc12 [Quinidine, reference compound]

>  <system>
rats

>  <measurement>
0.9 mg

$$$$
>  <compound>
CCN(CC)CCNC(=O)C1CCCCC12Oc1ccccc1O2 (stereo not shown)

>  <system>
rats

>  <measurement>
.phi.

$$$$

Lab note: compound CCN(CC)CCOC(=O)CC1(C)Oc2ccccc2O1.O=C(O)CC(O)(CC(=O)O)C(=O)O tested on rats; recorded Local anaesthetic activity in rats total ED50 was .phi.

Lab note: compound CCN(CC)CCNC(=O)C(C)C1(C)Oc2ccccc2O1 (stereo not shown) tested on rats; recorded Local anaesthetic activity in rats total ED50 was .phi.

* * *

# experiment summary: in vivo
# experimental setup: rat, ip
Counter-ions that a name gives are not always drawn.
Measured LD50, listed per entry.

Before answering, review these 6 worked examples.
>  <molecule>
CCN(CC)CCNC(=O)CC1(c2ccccc2)Oc2ccccc2O1 [LR 289, hydrochloride]

>  <LD50>
90 mg/kg

$$$$
>  <molecule>
CCN(CC)CCNC(=O)CCC1(C)Oc2ccccc2O1

>  <LD50>
150 mg/kg

$$$$
>  <molecule>
CCN(CC)CCNC(=O)C1CCCCC12Oc1ccccc1O2 (centres unmarked)

>  <LD50>
150 mg/kg

$$$$
>  <molecule>
CCN(CC)CCNC(=O)CC1(C)Oc2ccccc2O1

>  <LD50>
490 mg/kg

$$$$
>  <molecule>
CC1(CC(=O)NCc2ccccc2)Oc2ccccc2O1

>  <LD50>
1000 mg/kg

$$$$
>  <molecule>
CN(C)C(=O)CC1(c2ccccc2)Oc2ccccc2O1

>  <LD50>
> 1000 mg/kg

$$$$

The molecule O=C(CC1(c2ccccc2)Oc2ccccc2O1)NO showed LD50 equal to 150 mg/kg

The molecule CCOC(=O)CC1(c2ccccc2)Oc2ccc(Cl)cc2O1 (centres unmarked) showed LD50 equal to > 1000 mg/kg

The molecule O=C(CC1(c2ccccc2)Oc2ccccc2O1)OCCN1CCOCC1 showed LD50 equal to 490 mg/kg

The molecule CCN(CC)CCOCCOC(=O)CC1(C)Oc2ccccc2O1 showed LD50 equal to 720 mg/kg

The molecule CCN(CC)CCNC(=O)C(C)C1(C)Oc2ccccc2O1 (centres unmarked) showed LD50 equal to 250 mg/kg

The molecule CC(C)(C)NC(=O)CC1(c2ccccc2)Oc2ccccc2O1 showed LD50 equal to > 1000 mg/kg

The molecule CC1(CC(=O)O)Oc2ccccc2O1 showed LD50 equal to 250 mg/kg

The molecule CC1(CC(=O)OCCN2CCOCC2)Oc2ccccc2O1 showed LD50 equal to > 1000 mg/kg

The molecule CCN(CC)CCNC(=O)CC1(C)Oc2ccc(C)cc2O1 (centres unmarked) showed LD50 equal to 250 mg/kg

The molecule NC(=O)CC1(c2ccccc2)Oc2ccccc2O1 [LR 310, (2-phenyl-1,3-benzodioxol-2-yl)acetamide] showed LD50 equal to 940 mg/kg

The molecule O=C(O)CC1(c2ccccc2)Oc2ccccc2O1 showed LD50 equal to 250 mg/kg
